Test system: SNB-19 CNS
measurement-description: NCI tumour cell line growth inhibition, 48 h
reported-property: GI50

molecule	reported-property	test-value
COc1ccccc1NC(=O)N/C(N)=N/c1nc2ccccc2s1	GI50	0.0607 µM
CC(C)(C)OC(=O)N(CCCn1c2c(c3ccccc3c1=O)C(=O)c1ccccc1-2)CCN(CCCn1c2c(c3ccccc3c1=O)C(=O)c1ccccc1-2)C(=O)OC(C)(C)C	GI50	37.8 µM
COc1cccc2c1C(=O)c1c(O)c3c(c(O)c1C2=O)C[C@@](O)(C(=O)COC(=O)c1cccnc1)C[C@@H]3OC1CC(N)C(O)C(C)O1 (stereo partly drawn)	GI50	0.0691 µM
COc1cc(/C=C\c2cc(/C=C\c3ccc(O)c(OC)c3)n(C(=O)Nc3ccc(C(F)(F)F)cc3)n2)ccc1O	GI50	3.16 µM
CC(=O)OC1CC(C)c2c1ncnc2N1CCN(C(=O)OC(C)(C)C)CC1 (stereo not drawn)	GI50	78.5 µM
CC(C)(C)c1cc2c(OP(c3ccccc3)c3ccccc3)c(c1)Cc1cc(C(C)(C)C)cc(c1OP(c1ccccc1)c1ccccc1)Cc1cc(C(C)(C)C)cc(c1OP(c1ccccc1)c1ccccc1)Cc1cc(C(C)(C)C)cc(c1OP(c1ccccc1)c1ccccc1)C2	GI50	> 50 µM
O=c1cc(-c2ccccc2)oc2cc(OCc3cn(Cc4ccc(F)cc4)nn3)cc(O)c12	GI50	4.51 µM
CCCCCn1ncc(-c2c(O)c(O)cc3c(O)c(-c4c(C)cc5c(-c6cnn(CCCCC)n6)c(O)c(O)cc5c4O)c(C)cc23)n1	GI50	0.115 µM
CCN(CCc1ccc(F)cc1)c1ccc(CO)c(Cl)c1	GI50	13.2 µM
Cc1cc(C)c(S(=O)(=O)Oc2ccccc2[N+](=O)[O-])c(C)c1	GI50	4 µM
CCCN(CCC)c1ccc(C=O)c(OC)c1	GI50	29.4 µM
O=C(/C=C/c1ccccc1)c1ccc(O)c(CN2CCN(c3cc4c(cc3F)c(=O)c(C(=O)O)cn4C3CC3)CC2)c1	GI50	0.984 µM
COc1cc2c(cc1OCCN1C(=O)c3cccc4cccc(c34)C1=O)N=C[C@@H]1CCCN1C2=O	GI50	37.7 µM

---

System: HCT-15 colon
measurement-description: NCI tumour cell line growth inhibition, 48 h
reported-property: TGI

> print(dat)
                                    molecule  test.value
 1  COc1ccc(S(=O)(=O)N2CCCCC2)cc1NC(=O)c1[nH]c(C)c2c1CCCCC2=O    > 100 µM
 2    COc1ccccc1NC(=O)N/C(N)=N/c1nc2ccccc2s1    > 100 µM
 3  COc1ccc2c3c([nH]c2c1[N+](=O)[O-])C(C)N(C(=O)/C=C/c1ccccc1)CC3 (stereo not drawn)    > 100 µM
 4  c1ccc(SCCP(CCP(c2ccccc2)c2ccccc2)c2ccccc2)cc1 (stereo not drawn)    > 100 µM
 5  CCCCC/C=C1\CCC(CN2CCOCC2)C1=O (stereo not drawn)     21.8 µM
 6     O=c1[nH]ncc2[nH]c3c(c12)CCCc1ccccc1-3    > 100 µM
 7  O=C1c2ccccc2C(=O)c2c1c(NCCNCCO)c1cc[nH]c1c2NCCNCCO    > 100 µM
 8  C=CC1(C)/C(=N\O)C(C)(CC)C(=O)N1O (stereo not drawn)    > 100 µM
 9  CSc1ccc2c(cc1=O)C(NC(=O)c1cc(O)c(OC(=O)O)c(O)c1)CCc1cc(O)c(O)c(O)c1-2 (stereo not drawn)     34.3 µM
10  COc1ccc(/C=C/c2cc(=O)cc(/C=C/c3ccc(OC)c(O)c3)o2)cc1O     13.6 µM
11  COc1ccc(CNCCCN2C(=O)c3ccc4c5c(ccc(c35)C2=O)C(=O)N(CCCNCCCCNCCCN)C4=O)c(OC)c1OC     7.94 µM
12   Oc1ccc2ccccc2c1N=Nc1ccc(N=Nc2ccccc2)cc1    > 100 µM
13  Cc1c(Cl)c(S(N)(=O)=O)cc(S(N)(=O)=O)c1NC(=O)c1ccc(Cl)cc1    > 100 µM
14  O=C(/C=C/c1ccccc1)c1ccc(O)c(CN2CCN(c3cc4c(cc3F)c(=O)c(C(=O)O)cn4C3CC3)CC2)c1    > 100 µM
15  CCc1nc2cc(/C=C/C(=O)NO)c(F)cc2c(=O)n1CCc1ccccc1     16.5 µM
16        CCC(=O)NCC1(c2c[nH]c3ccccc23)SCCS1    > 100 µM
17  CC(=O)C1CC2(c3ccccc3)C(=O)c3ccccc3N2O1 (stereo not drawn)    > 100 µM
18  O=C(Cc1ccccc1)NN1C(=O)C(Cl)C1c1cc(Br)cc(Br)c1O (stereo not drawn)    > 100 µM
19  O=C(O)c1cc2c3c(c1)[C@H]1C=CC[C@H]1CN3CC1CC=CC21 (stereo partly drawn)    > 100 µM
20          S=c1scc(-c2ccc(Cl)cc2)n1OC1CCCC1    > 100 µM
21  CN1CCN(c2ccc3nc(-c4ccc5nc(-c6ccc(C(F)(F)F)cc6)[nH]c5c4)[nH]c3c2)CC1     24.5 µM
22  O=C(O/N=C1/CCC/C1=C\c1ccccc1)c1ccc(Cl)cc1    > 100 µM
23  CC(C)(C)OC(=O)N(CCCn1c2c(c3ccccc3c1=O)C(=O)c1ccccc1-2)CCN(CCCn1c2c(c3ccccc3c1=O)C(=O)c1ccccc1-2)C(=O)OC(C)(C)C     > 50 µM
24  COc1ccc(C(F)(F)F)cc1NC(=O)O/N=C(/Cl)C(C)C   > 30.4 µM
25  CCOC(=O)c1c(SCC#N)n(-c2ccccc2)c(=S)n(-c2ccccc2)c1=O    > 100 µM
26  N#CC1(C#N)C(c2ccccc2)NC23CCCCC2C1(C#N)C(=O)N3 (stereo not drawn)    > 100 µM
27  COc1cc([N+](=O)[O-])c(S(=O)(=O)O)cc1-n1nc(-c2ccccc2)n[n+]1-c1cc(S(=O)(=O)[O-])c([N+](=O)[O-])cc1OC    > 100 µM
28           Cn1cc(C=C(C#N)C#N)c(=O)n(C)c1=O    > 100 µM
